tested on: P. falciparum stage V gametocytes; set-up: BacTiter-Glo ATP luminescence viability of purified stage V gametocytes in 384-well plates, per cent inhibition versus DMSO; conditions: 48 h, 5 µM; inhibitor
Among all 13,000 compounds or so, about 3,200 (25%) showed an effect of 50% or more. The list shows a part of the results.
Our labelling divides records by % Inhibition into ranges: lo = under 20%, mid = from 20% up to 60%, hi = 60% and over

CN(C)Cc1ccc2cc(NC(=O)c3ccc(-c4ccc(Cl)cc4)cc3)ccc2c1: hi
COc1ccc(Nc2nccc(N3CCC(NS(=O)(=O)c4ccc(NC(C)=O)cc4)C3)n2)cc1 (stereo not shown): lo
CCN1CCCC1CNC(=O)c1cc2c(-c3ccc(Cl)cc3)nn(C)c2s1 (stereo not shown): hi
COc1cccc2sc(N3CCN(C(=O)c4ccc([N+](=O)[O-])o4)CC3)nc12: mid
Cc1ccc2sc(N3CCN(C(=O)c4ccc([N+](=O)[O-])o4)CC3)nc2c1C: hi
CCCc1ccc(NC(=O)c2ccc(CN3CCCN(CC4CCCCC4)CC3)cc2)cc1: lo
CC(C)(C)C/C=C\c1ccc(C(=O)NCC2CC2)cc1: lo
COc1ccc(-c2cccc(NC(=O)c3ccc(Cl)cc3)c2)cc1CN(C)CCN(C)C: lo
OC(CNCc1ccccc1OCc1ccccc1)c1cccc(I)c1 (stereo not shown): mid

// switching to the query compound
### Prompt Band for the recorded % Inhibition of COc1ccc(-c2ccc(NC(=O)c3ccc(C#N)cc3)cc2)cc1CN(C)CCO ?
### Response mid
